assayNotes: Inhibition of ribo(C)10 stimulated Escherichia coli AR120 Rho ATPase activity preincubated for 2 mins in presence of ribo(C)10 followed by ATP addition and measured for 90 sec by [gamma-32P]ATP based liquid scintillation counting method
measureName: Ki
Answer with the number, then the unit.

Query: Let me know recorded Ki for C=C1CCO[C@]2([C@@H](O)[C@@](C)(O)CO)NC(=O)[C@@]1(O)NC2=O [BICOZAMYCIN] , thanks.
Response: 2800 nM

* * *

assayNotes: Inhibition of Bacillus subtilis N-terminal SmBiT NanoLuc/C-terminal LgBiT NanoLuc fused full-length SigA tagged RNA polymerase beta subunit CH-domain (220 to 315 residues)/sigma factor (unknown origin) protein-protein interaction by split luciferase assay
measureName: IC50 (µM)
Report only the number, with the unit µM understood.

Query: Report IC50, nothing else, for this compound: Nc1ccccc1Sc1ccc(C(=O)c2ccccc2C(=O)O)cc1[N+](=O)[O-]
Response: 6.4

Taken from ChEMBL document CHEMBL5532700.
